Biological target: Lysophosphatidic acid receptor 6 (Homo sapiens)
Sequence (P43657 whole entry): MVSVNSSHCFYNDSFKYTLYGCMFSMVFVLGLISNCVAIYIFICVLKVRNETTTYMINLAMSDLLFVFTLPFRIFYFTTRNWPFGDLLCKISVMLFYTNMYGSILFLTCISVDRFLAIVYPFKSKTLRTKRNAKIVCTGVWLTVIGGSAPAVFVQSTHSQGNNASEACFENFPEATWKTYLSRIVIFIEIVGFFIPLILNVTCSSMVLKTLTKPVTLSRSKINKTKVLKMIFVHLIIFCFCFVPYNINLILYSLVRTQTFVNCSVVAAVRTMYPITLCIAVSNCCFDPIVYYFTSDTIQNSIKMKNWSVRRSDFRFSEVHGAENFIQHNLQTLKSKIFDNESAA
Assay: Agonist activity at human LPA6 receptor transfected in HEK293 cells after 1 hr by TGFalpha shedding assay in presence of Ki16425
Would you kindly list EC50 for each of these compounds?
Numbers only here, please. The scale is µM.

Reported EC50 ( CCCCCCCCCCCCCCCCOC(COC)COP(O)(O)=S (stereo not given) ) = 0.066

Reported EC50 ( `CCCCCCCCCCCCCCCCCC(=O)OC[C@@H](COP(O)(O)=S)OC` ) = 0.079

Reported EC50 ( `CCCCCCCCCCCCCCCCCC(=O)OC[C@H](COP(O)(O)=S)OC` ) = 0.058

Reported EC50 ( `CCCCCCCCCCCCCCCCCCOC[C@H](COP(O)(O)=S)OC` ) = 0.105

Reported EC50 ( CCCCCCCCCCCCCCCCCC(=O)OCC(COP(=O)(O)S)OC (racemic) ) = 0.086

Reported EC50 ( `CCCCCCCCCCCCCCCCCCOC[C@@H](COP(O)(O)=S)OC` ) = 0.09

Reported EC50 ( CCCCCCCCCCCCCCCCCCOCC(COP(O)(O)=S)OC (racemic) ) = 0.039

Reported EC50 ( CCCCCCCCCCCCCCCCCC(=O)OC(COC)COP(O)(O)=S (racemic) ) = 0.076

Reported EC50 ( `CCCCCCCCCCCCCCCC(=O)OC[C@@H](O)COP(=O)(O)O` ) = 0.93

Reported EC50 ( CCCCCCCCCCCCCCCCCOC(COC)COP(O)(O)=S (racemic) ) = 0.078

====

Would you kindly list pEC50 for each of these compounds?
Biological target: Lysophosphatidic acid receptor 1 (Homo sapiens)
Sequence (Q92633 whole entry): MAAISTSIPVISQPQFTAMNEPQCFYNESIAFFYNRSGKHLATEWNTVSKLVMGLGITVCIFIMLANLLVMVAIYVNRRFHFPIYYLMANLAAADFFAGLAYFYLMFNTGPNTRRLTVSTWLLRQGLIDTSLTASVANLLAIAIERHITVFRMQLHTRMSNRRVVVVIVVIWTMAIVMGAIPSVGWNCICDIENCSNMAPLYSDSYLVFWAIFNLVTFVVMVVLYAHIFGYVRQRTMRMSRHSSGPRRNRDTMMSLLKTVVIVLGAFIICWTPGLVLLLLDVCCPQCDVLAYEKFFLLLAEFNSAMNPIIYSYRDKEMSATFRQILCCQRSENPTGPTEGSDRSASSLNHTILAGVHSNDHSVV
Assay: Agonist activity at human LPA1 receptor transfected in HEK293 cells after 1 hr by TGFalpha shedding assay
Note on pEC50: it is the negative log10 of concentration, concentration in mol/L.

Reported pEC50 ( `CCCCCCCCCCCCCCCCCCOC[C@@H](COP(O)(O)=S)OC` ) = 8.00

Reported pEC50 ( CCCCCCCCCCCCCCCCOC(COC)COP(O)(O)=S (stereo unspecified) ) = 7.59

Reported pEC50 ( `CCCCCCCCCCCCCCCC(=O)OC[C@@H](O)COP(=O)(O)O` ) = 7.15

Reported pEC50 ( CCCCCCCCCCCCCCCCCC(=O)OCC(COP(=O)(O)S)OC (racemic) ) = 7.78

Reported pEC50 ( `CCCCCCCCCCCCCCCCCC(=O)OC[C@H](COP(O)(O)=S)OC` ) = 7.62

Reported pEC50 ( CCCCCCCCCCCCCCCCCOC(COC)COP(O)(O)=S (racemic) ) = 7.95

Reported pEC50 ( CCCCCCCCCCCCCCCCCCOCC(COP(O)(O)=S)OC (racemic) ) = 8.08

Reported pEC50 ( `CCCCCCCC/C=C\CCCCCCCC(=O)OC[C@@H](O)COP(=O)(O)O` ) = 7.74

Reported pEC50 ( CCCCCCCCCCCCCCCCCC(=O)OC(COC)COP(O)(O)=S (racemic) ) = 7.91

Reported pEC50 ( `CCCCCCCCCCCCCCCCCC(=O)OC[C@@H](COP(O)(O)=S)OC` ) = 7.83

Reported pEC50 ( `CCCCCCCCCCCCCCCCCCOC[C@H](COP(O)(O)=S)OC` ) = 7.51
